B1: CHCHD6 (parent)
chain: MYKLSSEQFHEAASKMESTIKPRR

# Variants of: B1
# protocol.description: protein stability index of a GFP-peptide fusion (GPS, HEK-293T) (PSI 1-6); higher = more stable;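 note: lentivirally expressed fusions sorted by FACS into six bins by GFP to DsRed ratio, PSI derived from sequencing read proportions per bin multiplied by bin number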
# measurement.context: c terminus: a fixed tail appended
property.name: protein stability index
# print the numeric value only

Input line: Dear colleague, I am looking for the recorded protein stability index of the following variant: `E11M`
Output line: 3.28

Input line: Same for `K21S`
Output line: 3.68

Input line: Same for `L4D`
Output line: 4.53

Input line: Same for `S6C`
Output line: 3.52

Input line: Same for `I20K`
Output line: 4.05

Input line: Same for `L4A`
Output line: 4.69

Input line: Same for `H10P`
Output line: 4.08

Input line: Same for `S18N`
Output line: 3.97

Input line: Same for `P22A`
Output line: 3.46

Input line: Same for `R24K`
Output line: 3.86

Input line: Same for `H10R`
Output line: 3.82

Input line: Same for `A12S`
Output line: 3.97

Input line: Same for `S6Y`
Output line: 3.39

Input line: Same for `A12I`
Output line: 2.88

Input line: Same for `R24V`
Output line: 3.06

Input line: Same for `F9Q`
Output line: 4.12

Input line: Same for `M1N`
Output line: 4.37

Input line: Same for `M1Q`
Output line: 4.24

Input line: Same for `R24I`
Output line: 2.86

Input line: Same for `K15W`
Output line: 3.73

Input line: Same for `S6L`
Output line: 3.03

Input line: Same for `Q8E`
Output line: 3.75

Input line: Same for `K15T`
Output line: 4.37

Input line: Same for `S18T`
Output line: 4.1

Input line: Same for `K21C`
Output line: 4.22

Input line: Same for `S5C`
Output line: 3.14

Input line: Same for `E7W`
Output line: 2.56

Input line: Same for `T19F`
Output line: 3.63

Input line: Same for `R23M`
Output line: 3.65

Input line: Same for `S14L`
Output line: 3.1

Input line: Same for `A13R`
Output line: 3.66

Input line: Same for `S5N`
Output line: 4.06

Input line: Same for `F9H`
Output line: 4.32

Input line: Same for `K3V`
Output line: 2.7

Input line: Same for `E17P`
Output line: 3.15

Input line: Same for `M1L`
Output line: 3.06

Input line: Same for `Y2F`
Output line: 4.01

Input line: Same for `S5V`
Output line: 3.43

Input line: Same for `R23G`
Output line: 3.59

Input line: Same for `A12C`
Output line: 3.31

Input line: Same for `K21N`
Output line: 3.89

Input line: Same for `M16D`
Output line: 4.09

Input line: Same for `S6D`
Output line: 4.03

Input line: Same for `L4T`
Output line: 3.81

Input line: Same for `L4V`
Output line: 3.74

Input line: Same for `A13D`
Output line: 4.25

Input line: Same for `Q8A`
Output line: 4.25

Input line: Same for `E17L`
Output line: 3.08

Input line: Same for `E17C`
Output line: 3.46

Input line: Same for `Q8K`
Output line: 3.84

Input line: Same for `P22R`
Output line: 3.83

Input line: Same for `L4P`
Output line: 4.61

Input line: Same for `F9L`
Output line: 3.36

Input line: Same for `T19C`
Output line: 3.67

Input line: Same for `A12N`
Output line: 2.9

Input line: Same for `Y2E`
Output line: 4.42

Input line: Same for `T19H`
Output line: 4.29

Input line: Same for `Y2R`
Output line: 4.7

Input line: Same for `S18A`
Output line: 4.41

Input line: Same for `S6N`
Output line: 4.23

Input line: Same for `M1A`
Output line: 3.87

Input line: Same for `F9P`
Output line: 4.68

Input line: Same for `K15P`
Output line: 3.93

Input line: Same for `K15V`
Output line: 4.2

Input line: Same for `E7R`
Output line: 2.96

Input line: Same for `E7P`
Output line: 3.64

Input line: Same for `S18R`
Output line: 4.13

Input line: Same for `E7G`
Output line: 4.39

Input line: Same for `K15N`
Output line: 4.42

Input line: Same for `P22D`
Output line: 4.26

Input line: Same for `A12T`
Output line: 3.75

Input line: Same for `E11G`
Output line: 3.8

Input line: Same for `E17T`
Output line: 3.19

Input line: Same for `K21D`
Output line: 3.69

Input line: Same for `E11S`
Output line: 3.37

Input line: Same for `K3T`
Output line: 3.73

Input line: Same for `Q8P`
Output line: 4.39

Input line: Same for `M16Q`
Output line: 4.47

Input line: Same for `S14N`
Output line: 3.78

Input line: Same for `H10Q`
Output line: 3.98

Input line: Same for `R24W`
Output line: 2.56

Input line: Same for `E7Q`
Output line: 3.58

Input line: Same for `H10T`
Output line: 3.3

Input line: Same for `M16S`
Output line: 4.16

Input line: Same for `Y2K`
Output line: 4.7

Input line: Same for `A12R`
Output line: 3.55

Input line: Same for `F9A`
Output line: 4.03

Input line: Same for `A13H`
Output line: 3.9

Input line: Same for `S14V`
Output line: 4.11

Input line: Same for `S6K`
Output line: 3.93

Input line: Same for `R23P`
Output line: 3.78
